The values you see were collected from patent US7612211B2.

- measurement target: hTRPV1 (Homo sapiens, UniProt Q8NER1)
- Construct: expressed in transfected cells; host or cells: HEK293
- Sequence (Q8NER1 whole entry): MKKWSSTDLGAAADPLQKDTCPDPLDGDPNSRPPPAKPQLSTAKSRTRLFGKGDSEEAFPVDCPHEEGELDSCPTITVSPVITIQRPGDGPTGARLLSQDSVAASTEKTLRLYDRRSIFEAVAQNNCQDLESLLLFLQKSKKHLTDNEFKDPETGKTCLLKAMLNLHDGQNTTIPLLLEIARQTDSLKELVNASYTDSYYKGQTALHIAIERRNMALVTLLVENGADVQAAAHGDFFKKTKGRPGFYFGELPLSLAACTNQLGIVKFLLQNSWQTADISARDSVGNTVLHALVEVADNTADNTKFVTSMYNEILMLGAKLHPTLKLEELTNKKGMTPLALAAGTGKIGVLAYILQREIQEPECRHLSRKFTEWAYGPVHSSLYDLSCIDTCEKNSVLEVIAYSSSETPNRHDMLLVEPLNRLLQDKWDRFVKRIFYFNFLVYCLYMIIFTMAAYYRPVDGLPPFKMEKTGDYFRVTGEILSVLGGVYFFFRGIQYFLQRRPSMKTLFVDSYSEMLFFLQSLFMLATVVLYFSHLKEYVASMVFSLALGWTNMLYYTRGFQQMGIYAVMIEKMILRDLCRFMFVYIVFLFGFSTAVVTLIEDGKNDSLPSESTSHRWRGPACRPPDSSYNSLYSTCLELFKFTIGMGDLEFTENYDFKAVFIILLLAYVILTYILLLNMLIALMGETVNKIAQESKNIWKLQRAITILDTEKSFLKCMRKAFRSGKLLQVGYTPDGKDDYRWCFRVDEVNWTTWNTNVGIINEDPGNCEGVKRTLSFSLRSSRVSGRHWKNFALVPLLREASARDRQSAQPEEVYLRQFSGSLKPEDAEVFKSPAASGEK
- experiment description: Human TRPV1 (hTRPV1) functional assay, FLIPR intracellular Ca2+, capsaicin challenge
- Assay type: cell-based
- measurement parameters: test concentration of 0.2 μm; HEK293 cells expressing hTRPV1, capsaicin 0.030 μM challenge; read-out: percent inhibition (symbol b)
Assign fulfilled whenever inhibition at 0.2 µM does not fall below 60%; assign not fulfilled whenever it does.

>  <compound>
OCC(O)c1ccccc1-c1ccc2[nH]c(COc3ccc(C(F)(F)F)cc3)nc2c1 (centres unmarked)

>  <label value>
fulfilled

$$$$
>  <compound>
CS(=O)(=O)c1ccccc1-c1ccc2[nH]c(COc3cccc(Cl)c3)nc2c1

>  <label value>
not fulfilled

$$$$
>  <compound>
CC(C)C(O)c1ccccc1-c1ccc2[nH]c(COc3ccc(C(F)(F)F)cc3)nc2c1 (centres unmarked)

>  <label value>
fulfilled

$$$$
>  <compound>
CS(=O)(=O)c1ccccc1-c1ccc2[nH]c(COc3cccc(C(F)(F)F)c3F)nc2c1

>  <label value>
not fulfilled

$$$$
>  <compound>
NS(=O)(=O)c1ccccc1-c1ccc2[nH]c(CNc3ccc(OC(F)(F)F)cc3)nc2c1

>  <label value>
not fulfilled

$$$$
>  <compound>
CS(=O)(=O)c1ccc(OCc2nc3cc(-c4ccccc4S(C)(=O)=O)ccc3[nH]2)cc1

>  <label value>
not fulfilled

$$$$
>  <compound>
CC(=O)Nc1cccc(OCc2nc3cc(-c4ccccc4S(C)(=O)=O)ccc3[nH]2)c1

>  <label value>
not fulfilled

$$$$
>  <compound>
CNS(=O)(=O)c1ccccc1-c1ccc2[nH]c(COc3ccc(C4CC4)cc3)nc2c1

>  <label value>
fulfilled

$$$$
>  <compound>
NS(=O)(=O)c1ccccc1-c1ccc2[nH]c(CSc3ccc(C(F)(F)F)cc3)nc2c1

>  <label value>
fulfilled

$$$$
>  <compound>
O=S(=O)(CCO)c1ccccc1-c1ccc2[nH]c(COc3ccc(S(=O)(=O)C(F)(F)F)cc3)nc2c1

>  <label value>
fulfilled

$$$$
>  <compound>
NS(=O)(=O)c1ccccc1-c1ccc2[nH]c(CSc3ccc(Cl)cc3)nc2c1

>  <label value>
fulfilled

$$$$

----------
- measurement target: hTRPV1 (Homo sapiens, UniProt Q8NER1)
- Construct: expressed in transfected cells; host or cells: HEK293
- experiment description: Human TRPV1 (hTRPV1) functional assay, FLIPR intracellular Ca2+, capsaicin challenge
- Format: cell-based
- measurement parameters: test concentration of 0.5 μm; HEK293 cells expressing hTRPV1, capsaicin 0.030 μM challenge; read-out: percent inhibition (symbol a)
- Experimental: The functional activity of the test compounds was determined by measuring changes in intracellular calcium concentration using a Ca^++-sensitive fluorescent dye and FLIPR™ technology. Increases in Ca^++ concentration were readily detected upon challenge with capsaicin. […] EC50 or IC50 values were determined from concentration-response studies, which were generated using the average of quadruplicate wells for each data point. […]

>  <molecular string>
NS(=O)(=O)c1ccccc1-c1ccc2[nH]c(COc3cccc(F)c3)nc2c1

>  <inhibition at 0.5 µM>
67%

$$$$
>  <molecular string>
CN(Cc1ccc(C(F)(F)F)cc1)c1nc2cc(-c3ccccc3S(N)(=O)=O)ccc2[nH]1

>  <inhibition at 0.5 µM>
37%

$$$$
>  <molecular string>
CNS(=O)(=O)c1ccccc1-c1ccc2[nH]c(COc3ccc(S(C)(=O)=O)cc3)nc2c1

>  <inhibition at 0.5 µM>
100%

$$$$
>  <molecular string>
CS(=O)(=O)Nc1ccc(-c2ccc3[nH]c(COc4ccc(C(F)(F)F)cc4)nc3c2)cc1

>  <inhibition at 0.5 µM>
7%

$$$$

----------
- measurement target: UniProt Q8NER1
- experiment description: Human TRPV1 (hTRPV1) functional assay, FLIPR intracellular Ca2+, capsaicin challenge
- measurement parameters: derived from a variety of test concentrations; HEK293 cells expressing hTRPV1, capsaicin 0.030 μM challenge; read-out: IC50 value (symbol c)
pIC50: −log10 of the molar value.

>  <molecule>
CS(=O)(=O)c1ccccc1-c1ccc2[nH]c(COc3ccc(S(=O)(=O)C(F)(F)F)cc3)nc2c1

>  <measurement target>
UniProt Q8NER1

>  <pIC50>
8.31

$$$$
>  <molecule>
CC(C)(O)c1ccccc1-c1ccc2[nH]c(COc3ccc(Cl)cc3)nc2c1

>  <measurement target>
UniProt Q8NER1

>  <pIC50>
7.72

$$$$
>  <molecule>
Cn1c(COc2ccc(C(F)(F)F)cc2)nc2cc(-c3ccccc3S(N)(=O)=O)ccc21

>  <measurement target>
UniProt Q8NER1

>  <pIC50>
8.07

$$$$
>  <molecule>
CNS(=O)(=O)c1ccccc1-c1ccc2[nH]c(C(F)(F)Oc3ccc(C(F)(F)F)cc3)nc2c1

>  <measurement target>
UniProt Q8NER1

>  <pIC50>
7.77

$$$$
>  <molecule>
NS(=O)(=O)c1ccccc1-c1ccc2[nH]c(COc3ccc(S(=O)(=O)C(F)(F)F)cc3)nc2c1

>  <measurement target>
UniProt Q8NER1

>  <pIC50>
8.00

$$$$
>  <molecule>
CS(=O)(=O)c1ccccc1-c1ccc2[nH]c(COc3ccc4c(c3)OCO4)nc2c1

>  <measurement target>
UniProt Q8NER1

>  <pIC50>
7.07

$$$$
>  <molecule>
CC(C)c1ccc(OCc2nc3cc(-c4ccccc4S(C)(=O)=O)ccc3[nH]2)cc1

>  <measurement target>
UniProt Q8NER1

>  <pIC50>
8.52

$$$$
>  <molecule>
O=S(=O)(CCO)c1ccccc1-c1ccc2[nH]c(COc3ccc(C(F)(F)F)cc3)nc2c1

>  <measurement target>
UniProt Q8NER1

>  <pIC50>
8.10

$$$$
>  <molecule>
CC(C)(O)c1ccccc1-c1ccc2[nH]c(COc3ccc(OC(F)(F)F)cc3)nc2c1

>  <measurement target>
UniProt Q8NER1

>  <pIC50>
8.40

$$$$
>  <molecule>
CS(=O)(=O)Nc1ccccc1-c1ccc2[nH]c(COc3ccc(C(F)(F)F)cc3)nc2c1

>  <measurement target>
UniProt Q8NER1

>  <pIC50>
8.00

$$$$
>  <molecule>
CC(=O)c1ccc(OCc2nc3cc(-c4ccccc4S(N)(=O)=O)ccc3[nH]2)cc1

>  <measurement target>
UniProt Q8NER1

>  <pIC50>
7.80

$$$$
>  <molecule>
NS(=O)(=O)c1ccccc1-c1ccc2[nH]c(COc3ccc(F)c(C(F)(F)F)c3)nc2c1

>  <measurement target>
UniProt Q8NER1

>  <pIC50>
7.74

$$$$
>  <molecule>
CS(=O)(=O)c1ccccc1-c1ccc2[nH]c(COc3ccc(C(F)(F)F)cc3)nc2c1

>  <measurement target>
UniProt Q8NER1

>  <pIC50>
8.68

$$$$
>  <molecule>
OCc1ccccc1-c1ccc2[nH]c(COc3ccc(C(F)(F)F)cc3)nc2c1

>  <measurement target>
UniProt Q8NER1

>  <pIC50>
8.09

$$$$
>  <molecule>
NS(=O)(=O)c1ccccc1-c1ccc2[nH]c(COc3ccc(OC(F)(F)F)cc3)nc2c1

>  <measurement target>
UniProt Q8NER1

>  <pIC50>
8.00

$$$$
>  <molecule>
CC(C)(O)c1ccccc1-c1ccc2[nH]c(COc3cccc(C(F)(F)F)c3)nc2c1

>  <measurement target>
UniProt Q8NER1

>  <pIC50>
6.81

$$$$
>  <molecule>
CNS(=O)(=O)c1ccccc1-c1ccc2[nH]c(COc3ccc(C4CC4)cc3)nc2c1

>  <measurement target>
UniProt Q8NER1

>  <pIC50>
8.22

$$$$
>  <molecule>
NS(=O)(=O)c1ccccc1-c1ccc2[nH]c(COc3ccc(Cl)cc3)nc2c1

>  <measurement target>
UniProt Q8NER1

>  <pIC50>
7.89

$$$$
>  <molecule>
CCOc1ccc(OCc2nc3cc(-c4ccccc4S(N)(=O)=O)ccc3[nH]2)cc1

>  <measurement target>
UniProt Q8NER1

>  <pIC50>
7.36

$$$$
>  <molecule>
CC(C)(O)C(=O)c1ccccc1-c1ccc2[nH]c(COc3ccc(C(F)(F)F)cc3)nc2c1

>  <measurement target>
UniProt Q8NER1

>  <pIC50>
8.15

$$$$
>  <molecule>
CNS(=O)(=O)c1ccccc1-c1ccc2[nH]c(COc3ccc(Cl)cc3)nc2c1

>  <measurement target>
UniProt Q8NER1

>  <pIC50>
7.15

$$$$
>  <molecule>
NS(=O)(=O)c1ccc(F)cc1-c1ccc2[nH]c(COc3ccc(C(F)(F)F)cc3)nc2c1

>  <measurement target>
UniProt Q8NER1

>  <pIC50>
7.80

$$$$
>  <molecule>
CON(C)C(=O)C(O)c1ccccc1-c1ccc2[nH]c(COc3ccc(C(F)(F)F)cc3)nc2c1 (stereo not drawn)

>  <measurement target>
UniProt Q8NER1

>  <pIC50>
7.34

$$$$
>  <molecule>
CC(C)(O)c1ccccc1-c1ccc2[nH]c(COc3ccc(C(F)(F)F)cc3)nc2c1

>  <measurement target>
UniProt Q8NER1

>  <pIC50>
7.85

$$$$
>  <molecule>
CC(C)(C)c1ccc(OCc2nc3cc(-c4ccccc4S(C)(=O)=O)ccc3[nH]2)cc1

>  <measurement target>
UniProt Q8NER1

>  <pIC50>
8.52

$$$$
>  <molecule>
NS(=O)(=O)c1ccccc1-c1ccc2[nH]c(COc3ccc4ccccc4c3)nc2c1

>  <measurement target>
UniProt Q8NER1

>  <pIC50>
7.49

$$$$
>  <molecule>
CS(=O)(=O)c1ccccc1-c1ccc2[nH]c(COc3ccc(Cl)cc3F)nc2c1

>  <measurement target>
UniProt Q8NER1

>  <pIC50>
7.09

$$$$
